IC50 values for RORc (Homo sapiens, UniProt P51449), compiled from several publications.
endpoint_label: IC50 (nM)

[[record]]
compound = "Cc1nn(C)/c(=N\\[C@@]23CC[C@@H](c4cc(-c5ccccc5F)nnc42)C3(C)C)o1"
endpoint_label = "IC50"
units_of_measure = "nM"
value_observed = 1530


P. Cc1noc(C[C@]23CC[C@H](c4cc(-c5ccccc5F)nnc42)C3(C)C)n1
Q. CON(C)C(=O)[C@]12CC[C@H](c3cc(-c4c(F)cccc4F)nnc31)C2(C)C
R. C[C@H]1CC[C@@H](c2ccccc2)S(=O)(=O)N1Cc1ccc(C2(C(=O)O)CCOCC2)cc1F
S. C[C@H]1CC[C@H](c2ccccc2)S(=O)(=O)N1Cc1cc(F)c(C2(NC(=O)C3CC3)COC2)cc1F (stereo in doubt)
Request: Sort these compounds on IC50 so the largest reading comes first. # the answer lists labels in the order requested
Response: R, P, Q, S

a. CC1(C)[C@@H]2CC[C@@]1(C(=O)N1CC(F)C1)c1nnc(-c3c(F)cccc3F)cc12
b. CC1(C)[C@H]2CC[C@]1(N1CCOC1=O)c1nnc(-c3c(F)cccc3F)cc12
c. CC(NC(=O)c1csc(N)n1)c1cc(F)c(CN2[C@@H](C)CC[C@H](c3ccccc3)S2(=O)=O)cc1F (stereo in doubt)
d. CC1(C)[C@H]2C[C@@H](F)[C@]1(C)c1nnc(-c3ccccc3F)cc12
Request: Parameters: sort_field (IC50), sort_dir (desc). Lab note: final answer is the ordered label list.
Response: d, b, c, a

A. C[C@H]1CC[C@H](c2ccccc2)S(=O)(=O)N1Cc1ccc(C2(CNS(C)(=O)=O)CCOCC2)cc1F
B. CC1(C)C2CCC1(C1CCCN(C(=O)c3ncco3)C1)c1nnc(-c3c(F)cccc3F)cc12 (stereo not drawn)
C. C[C@H]1CC[C@H](c2ccccc2)S(=O)(=O)N1Cc1cc(F)c(C2(CCC(N)=O)CC2)cc1F
D. CC[C@@H](O[C@]12CC[C@H](c3cc(-c4c(F)cccc4F)nnc31)C2(C)C)C(=O)O
Request: Rank entries according to their IC50, from the largest number down. Could you list the labels in the order requested?
Response: A, D, C, B

I. C[C@H]1CCC(c2ccccc2)S(=O)(=O)N1Cc1ccc(C(=O)NCc2noc(C(N)=O)n2)cc1 (stereo partly drawn)
II. CC1(C)[C@H]2CC[C@]1([C@H]1CCCN(C(=O)c3cnccn3)C1)c1nnc(-c3c(F)cccc3F)cc12
Request: Field: entry with larger IC50 (options I / II ). Selection: enter the item's label.
Response: I
(I: 1390 nM, II: 14 nM)
